Experiment: Metabolic stability in mouse liver microsomes assessed as intrinsic clearance
Assay type: ADME, Microsome
Details: read-out: CLH
MEASURED_PARAMETER: microsomal CLint

[
  {
    "GIVEN_SMILES": "C[C@H](NC(=O)c1c(Cc2cccc(C(F)(F)F)c2)sc2c1CCOC2)c1ccc(C(=O)O)cc1",
    "VALUE_OBSERVED": "< 9.6 µL/min/mg"
  },
  {
    "GIVEN_SMILES": "C[C@H](NC(=O)c1c(C(F)F)nn(C)c1Oc1cccc(C(F)(F)F)c1)c1ccc(C(=O)O)cc1",
    "VALUE_OBSERVED": "< 9.6 µL/min/mg"
  },
  {
    "GIVEN_SMILES": "O=C(O)c1ccc(CNC(=O)c2c(Cc3ccc(F)cc3)sc3c2CCOC3)cc1",
    "VALUE_OBSERVED": "< 9.6 µL/min/mg"
  },
  {
    "GIVEN_SMILES": "C[C@H](NC(=O)c1c(CCc2ccc(F)cc2)sc2c1CCOC2)c1ccc(C(=O)O)cc1",
    "VALUE_OBSERVED": "< 9.6 µL/min/mg"
  },
  {
    "GIVEN_SMILES": "C[C@H](NC(=O)c1c(Cc2ccc(C(F)(F)F)cc2)sc2c1CCOC2)c1ccc(C(=O)O)cc1",
    "VALUE_OBSERVED": "< 9.6 µL/min/mg"
  },
  {
    "GIVEN_SMILES": "C[C@H](NC(=O)c1c(CCc2ccc(F)cc2)sc2c1CCC2)c1ccc(C(=O)O)cc1",
    "VALUE_OBSERVED": "86.1 µL/min/mg"
  }
]
